B1: PBXIP1 (parent)
chain: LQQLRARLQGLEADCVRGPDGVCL

variants of: B1; test: protein stability index of a GFP-peptide fusion (GPS, HEK-293T) (PSI 1-6); higher = more stable; conditions: c terminus: a fixed tail appended;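 also: lentivirally expressed fusions sorted by FACS into six bins by GFP to DsRed ratio, PSI derived from sequencing read proportions per bin multiplied by bin number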
// label = 1 (yes) if protein stability index is not less than 2, otherwise 0 (no)

- variant key: "R7K"
  category: "1 (yes)"
- variant key: "Q9A"
  category: "0 (no)"
- variant key: "G21S"
  category: "1 (yes)"

Continue with the next variant.
Kindly determine if protein stability index recorded for `A13H` is above or exactly 2.
0 (no)
